Target: T1, human IgE (human, UniProt P01854)
T1 chain: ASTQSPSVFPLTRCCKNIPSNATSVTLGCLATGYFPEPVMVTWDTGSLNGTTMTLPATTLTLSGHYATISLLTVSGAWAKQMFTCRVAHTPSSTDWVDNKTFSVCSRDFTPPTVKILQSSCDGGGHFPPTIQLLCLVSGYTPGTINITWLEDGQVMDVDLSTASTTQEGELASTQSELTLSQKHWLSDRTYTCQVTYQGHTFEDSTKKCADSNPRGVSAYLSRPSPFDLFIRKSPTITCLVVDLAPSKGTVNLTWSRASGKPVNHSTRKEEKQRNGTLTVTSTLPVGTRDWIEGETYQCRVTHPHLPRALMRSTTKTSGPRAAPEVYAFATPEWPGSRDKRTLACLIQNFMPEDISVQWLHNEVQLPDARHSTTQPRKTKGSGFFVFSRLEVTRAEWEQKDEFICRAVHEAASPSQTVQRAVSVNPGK
Test: competition ELISA, pH 7.4
Assign IC50 to each entry below.
Give bare numbers, in µg/mL.

[ask] I would be grateful if you could share the reported IC50 for VL18B9_Y49H (18B9His) (antibody, V domains shown) VH: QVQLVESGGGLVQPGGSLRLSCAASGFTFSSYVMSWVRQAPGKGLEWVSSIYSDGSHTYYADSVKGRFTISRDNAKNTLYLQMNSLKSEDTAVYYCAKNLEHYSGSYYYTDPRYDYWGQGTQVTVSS VL: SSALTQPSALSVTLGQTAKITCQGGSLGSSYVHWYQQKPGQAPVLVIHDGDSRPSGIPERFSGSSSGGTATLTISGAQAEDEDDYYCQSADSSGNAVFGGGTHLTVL .
[reply] 0.19

[ask] Please give the result for 18B9His-hIgG1-ABDEG (antibody, V domains shown) VH: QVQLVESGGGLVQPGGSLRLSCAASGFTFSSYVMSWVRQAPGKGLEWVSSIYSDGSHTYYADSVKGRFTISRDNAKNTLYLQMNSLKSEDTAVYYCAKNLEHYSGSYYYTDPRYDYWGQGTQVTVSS VL: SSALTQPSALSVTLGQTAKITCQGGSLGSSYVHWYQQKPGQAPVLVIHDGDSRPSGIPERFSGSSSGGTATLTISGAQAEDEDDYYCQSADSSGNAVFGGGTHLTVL too.
[reply] 0.13

Next:
[ask] Suppose we examine the binder 18E2His2-hIgG1-ABDEG (antibody, V domains shown) VH: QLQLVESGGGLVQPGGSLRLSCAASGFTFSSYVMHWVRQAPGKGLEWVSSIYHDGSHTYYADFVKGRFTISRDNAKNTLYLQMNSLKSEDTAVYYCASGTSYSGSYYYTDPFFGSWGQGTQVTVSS VL: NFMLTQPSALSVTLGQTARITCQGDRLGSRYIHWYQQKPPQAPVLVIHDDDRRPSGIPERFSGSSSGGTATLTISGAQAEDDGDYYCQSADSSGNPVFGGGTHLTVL ; what IC50 value has been reported?
[reply] 1.49

These entries and their values trace back to patent US20260347506.
